# System: Salmonella enterica typhimurium
# ASSAY_PROCEDURE: growth AUC normalised to DMSO control (fraction of control); higher = less growth inhibition, active = hit call of the paper;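 active = AUC significantly below DMSO controls by Student t-fit with adjusted P under 0.01; inactive = not significantly reduced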
# CONDITION_DETAILS: 20 µM
Structures can show the parent of a compound that is named as a salt.
I would appreciate it if you answered using one of these outcomes: label 1 (active), label 0 (inactive)

Examples with answers:
COMPOUND	DISCRETE_LABEL
CC(C)(C)C(=O)OCOC(=O)[C@@H]1N2C(=O)[C@@H](/N=C/N3CCCCCC3)[C@H]2SC1(C)C [Pivmecillinam hydrochloride]	label 1
CN1C2CCCC1CC(NC(=O)c1nn(C)c3ccccc13)C2 (stereo not drawn) [Granisetron]	label 0
CC(C)NCC(O)COc1cccc2[nH]ccc12 (stereo not drawn) [Pindolol]	label 0
CC(=O)CC(c1ccc([N+](=O)[O-])cc1)c1c(O)c2ccccc2oc1=O (stereo not drawn) [Acenocoumarol]	label 0
CC(C)(C)NCC(O)COc1cccc2c1CCC(=O)N2 (stereo not drawn) [Carteolol hydrochloride]	label 0
COc1nc(C)nc(Cl)c1NC1=NCCN1 [Moxonidine]	label 0
Clc1ccc2c(c1)CCc1cccnc1C2=C1CCNCC1 [Desloratadine]	label 0
CC1(C)O[C@@H]2C[C@H]3[C@@H]4C[C@H](F)C5=CC(=O)C=C[C@]5(C)[C@H]4[C@@H](O)C[C@]3(C)[C@]2(C(=O)CO)O1 [Flunisolide]	label 0
CCCC(CCC)C(=O)O [Valproic acid]	label 0
CNCC(O)c1ccc(OC(=O)C(C)(C)C)c(OC(=O)C(C)(C)C)c1 (stereo not drawn) [Dipivefrin hydrochloride]	label 0

*Q* Hello, I am checking results. What call was entered for CCOc1ccccc1OCC1CNCCO1 (stereo not drawn) [Viloxazine hydrochloride] ?
*A* label 0

*Q* Tell me the assay call for CCOCCn1c(N2CCCN(C)CC2)nc2ccccc21 [Emedastine difumarate] please.
*A* label 0

*Q* Recorded call for Cc1ccc(S(=O)(=O)NC(=O)NN2CC3CCCC3C2)cc1 (stereo not drawn) [Gliclazide] ?
*A* label 0
